- method-description: Antiproliferative activity against human EC109 cells assessed as cell growth inhibition after 72 hrs by MTT assay
- Format: functional, cell-based
- condition-details: ECa-109, 72 h
IC50: recorded values
Numeric only. Scale: µM

The cases that follow already have their IC50 on record.
[[record]]
smiles = "C[C@]12CC[C@H](OC(=O)Cn3cc(CN4C(=O)C(=O)c5cc(Br)ccc54)nn3)CC1=CC[C@@H]1[C@@H]2CC[C@]2(C)C(=O)CC[C@@H]12"
quantitative_readout = 44.1

[[record]]
smiles = "O=c1[nH]cc(F)c(=O)[nH]1"
quantitative_readout = 3.17

[[record]]
smiles = "C[C@]12CC[C@H](OC(=O)Cn3cc(CNc4ccc(Br)cc4)nn3)CC1=CC[C@@H]1[C@@H]2CC[C@]2(C)C(=O)CC[C@@H]12"
quantitative_readout = 37.1

[[record]]
smiles = "C[C@]12CC[C@H](OC(=O)Cn3cc(COc4ccc(Br)cc4)nn3)CC1=CC[C@@H]1[C@@H]2CC[C@]2(C)C(=O)CC[C@@H]12"
quantitative_readout = 21

[[record]]
smiles = "Cc1ccc(OCc2cn(CC(=O)O[C@H]3CC[C@@]4(C)C(=CC[C@@H]5[C@@H]4CC[C@]4(C)C(=O)CC[C@@H]54)C3)nn2)cc1"
quantitative_readout = 23.9


In: Field request: IC50 | item: `COc1ccc(NCc2cn(CC(=O)O[C@H]3CC[C@@]4(C)C(=CC[C@@H]5[C@@H]4CC[C@]4(C)C(=O)CC[C@@H]54)C3)nn2)cc1`
Out: 24.7

In: Field request: IC50 | item: `C[C@]12CC[C@H](OC(=O)Cn3cc(COc4ccc(/C=C/C(=O)c5ccccc5)cc4)nn3)CC1=CC[C@@H]1[C@@H]2CC[C@]2(C)C(=O)CC[C@@H]12`
Out: 118

In: Field request: IC50 | item: `C[C@]12CC[C@H](OC(=O)Cn3cc(COc4ccc(C(=O)/C=C/c5ccc(Br)cc5)cc4)nn3)CC1=CC[C@@H]1[C@@H]2CC[C@]2(C)C(=O)CC[C@@H]12`
Out: 79.8

In: Field request: IC50 | item: `C[C@]12CC[C@H](OC(=O)Cn3cc(CN4C(=O)C(=O)c5cccc(Cl)c54)nn3)CC1=CC[C@@H]1[C@@H]2CC[C@]2(C)C(=O)CC[C@@H]12`
Out: 84.6

In: Field request: IC50 | item: `C[C@]12CC[C@H](OC(=O)Cn3cc(CN4C(=O)C(=O)c5c(Cl)ccc(Cl)c54)nn3)CC1=CC[C@@H]1[C@@H]2CC[C@]2(C)C(=O)CC[C@@H]12`
Out: 20.8

###

- method-description: Antiproliferative activity against human MGC803 cells assessed as cell growth inhibition after 72 hrs by MTT assay
- Assay type: functional, cell-based
- condition-details: MGC-803, 72 h
pIC50: −log10 of the molar value.
quantity-name: pIC50

The cases that follow already have their pIC50 on record.
[[record]]
smiles = "C[C@]12CC[C@H](OC(=O)Cn3cc(COc4ccc5ccc(=O)oc5c4)nn3)CC1=CC[C@@H]1[C@@H]2CC[C@]2(C)C(=O)CC[C@@H]12"
result = "< 3.89"

[[record]]
smiles = "C[C@]12CC[C@H](OC(=O)Cn3cc(COc4ccc(C(=O)/C=C/c5ccc(Br)cc5)cc4)nn3)CC1=CC[C@@H]1[C@@H]2CC[C@]2(C)C(=O)CC[C@@H]12"
result = "< 3.89"


Consider now this further compound.
In: Field request: pIC50 | item: `C[C@]12CC[C@H](OC(=O)Cn3cc(COc4ccccc4[N+](=O)[O-])nn3)CC1=CC[C@@H]1[C@@H]2CC[C@]2(C)C(=O)CC[C@@H]12`
Out: 4.29

Cited source for all entries: ChEMBL document CHEMBL3804830
